- Target Or Test System: T1, IL-1beta (UniProt P01584 117-269)
- T1 construct: also called IL-1β
- Protocol: Biacore
Value Kind: binding result

- Binder: "XPA23 Fab, heavy chain Y107H (Fab, V domains shown) VH: EVQLLESGGGLVQPGGSLRLSCAASGFTFSKYFMFWVRQAPGKGLEWVSVISPSGGMTRYADSVKGRFTISRDNSKNTLYLQMNSLRAEDTAVYYCARVGYGGNSDHWGQGTLVTVSS VL: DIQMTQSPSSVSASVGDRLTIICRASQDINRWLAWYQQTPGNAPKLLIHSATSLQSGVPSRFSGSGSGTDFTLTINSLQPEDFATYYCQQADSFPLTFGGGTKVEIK"
  binding result: "no binding"
- Binder: "XPA23 Fab, heavy chain I51W (Fab, V domains shown) VH: EVQLLESGGGLVQPGGSLRLSCAASGFTFSKYFMFWVRQAPGKGLEWVSVWSPSGGMTRYADSVKGRFTISRDNSKNTLYLQMNSLRAEDTAVYYCARVGYGGNSDYWGQGTLVTVSS VL: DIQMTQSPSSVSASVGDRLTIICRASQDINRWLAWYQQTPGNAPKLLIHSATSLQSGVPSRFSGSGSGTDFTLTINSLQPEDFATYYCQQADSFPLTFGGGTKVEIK"
  binding result: "no binding"
- Binder: "XPA23 Fab, heavy chain S52K (Fab, V domains shown) VH: EVQLLESGGGLVQPGGSLRLSCAASGFTFSKYFMFWVRQAPGKGLEWVSVIKPSGGMTRYADSVKGRFTISRDNSKNTLYLQMNSLRAEDTAVYYCARVGYGGNSDYWGQGTLVTVSS VL: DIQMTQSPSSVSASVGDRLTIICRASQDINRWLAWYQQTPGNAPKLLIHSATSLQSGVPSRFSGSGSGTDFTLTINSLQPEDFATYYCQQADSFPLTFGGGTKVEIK"
  binding result: "no binding"
- Binder: "XPA23 Fab, heavy chain R59H (Fab, V domains shown) VH: EVQLLESGGGLVQPGGSLRLSCAASGFTFSKYFMFWVRQAPGKGLEWVSVISPSGGMTHYADSVKGRFTISRDNSKNTLYLQMNSLRAEDTAVYYCARVGYGGNSDYWGQGTLVTVSS VL: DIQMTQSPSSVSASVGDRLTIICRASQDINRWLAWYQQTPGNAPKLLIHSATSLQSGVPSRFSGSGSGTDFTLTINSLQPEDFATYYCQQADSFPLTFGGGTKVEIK"
  binding result: "no binding"

Below: the item to evaluate.
Consider the binder XPA23 Fab, heavy chain V99S (Fab, V domains shown) VH: EVQLLESGGGLVQPGGSLRLSCAASGFTFSKYFMFWVRQAPGKGLEWVSVISPSGGMTRYADSVKGRFTISRDNSKNTLYLQMNSLRAEDTAVYYCARSGYGGNSDYWGQGTLVTVSS VL: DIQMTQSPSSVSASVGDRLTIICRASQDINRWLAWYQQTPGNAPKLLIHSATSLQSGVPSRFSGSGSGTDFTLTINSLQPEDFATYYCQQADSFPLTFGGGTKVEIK and give its measured binding result. no binding
